Data provenance is patent US10485800B2.

# SYSTEM TESTED: MLK3 (Homo sapiens (Human), UniProt Q16584)
# Sequence (Q16584 whole entry): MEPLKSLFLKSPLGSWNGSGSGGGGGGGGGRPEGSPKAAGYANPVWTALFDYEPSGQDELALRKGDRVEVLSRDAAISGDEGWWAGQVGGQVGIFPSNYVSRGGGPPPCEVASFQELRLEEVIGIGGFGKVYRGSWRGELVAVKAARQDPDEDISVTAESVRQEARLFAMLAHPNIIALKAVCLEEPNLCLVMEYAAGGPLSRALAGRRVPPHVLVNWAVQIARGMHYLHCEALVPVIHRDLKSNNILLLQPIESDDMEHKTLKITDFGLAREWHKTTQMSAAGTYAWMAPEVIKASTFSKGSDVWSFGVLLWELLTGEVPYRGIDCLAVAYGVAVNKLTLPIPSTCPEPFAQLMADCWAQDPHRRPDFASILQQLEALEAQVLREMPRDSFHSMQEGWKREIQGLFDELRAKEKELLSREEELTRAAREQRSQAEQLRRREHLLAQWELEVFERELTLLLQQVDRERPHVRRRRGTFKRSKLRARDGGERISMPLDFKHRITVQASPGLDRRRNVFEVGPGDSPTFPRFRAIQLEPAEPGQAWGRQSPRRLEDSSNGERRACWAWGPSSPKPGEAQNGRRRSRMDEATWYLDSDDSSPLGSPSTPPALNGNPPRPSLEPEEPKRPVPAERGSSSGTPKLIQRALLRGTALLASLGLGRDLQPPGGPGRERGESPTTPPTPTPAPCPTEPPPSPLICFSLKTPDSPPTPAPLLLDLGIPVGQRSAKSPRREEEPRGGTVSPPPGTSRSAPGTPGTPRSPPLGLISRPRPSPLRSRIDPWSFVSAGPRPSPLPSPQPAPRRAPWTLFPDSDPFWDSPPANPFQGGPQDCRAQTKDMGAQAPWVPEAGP
# PROTOCOL NOTES: Radiometric filter plate MLK3 assay
# Type: biochemical
# CONDITIONS USED: 2 μM cold ATP (Km), 1 μM inactive MKK7b, twenty minute incubation; read-out: MK3 IC50
Entries and their measured IC50 follow.
QUANTITY: IC50

| COMPOUND | OBSERVED RESULT |
| --- | --- |
| COc1ccc(-n2c(=O)[nH]c3ncc(-c4ccc(OC)c(OC)c4)nc32)cc1 | > 1000 nM |
| CC(C)(C)OC(=O)N1CCN(C(=O)c2cccc(-c3cnc4[nH]cc(-c5ccc(C(N)=O)cc5)c4c3)c2)CC1 | < 100 nM |
| O=c1[nH]c2ncc(-c3ccc(O)cc3)nc2n1CC1CC1 | > 1000 nM |
| O=c1[nH]c2ncc(-c3cc(F)cc(F)c3)nc2n1-c1ccc2[nH]ccc2c1 | > 1000 nM |
| Nc1ccc(-c2cnc3[nH]cc(-c4ccc5[nH]ccc5c4)c3c2)cc1 | < 100 nM |
| Nc1ncc(-c2cnc3[nH]cc(-c4ccc5[nH]ccc5c4)c3c2)cn1 | < 100 nM |
| COc1cc(-c2cnc3c(c2)C(CC2CC2)C(=O)N3)cc(OC)c1OC (stereo not drawn) | 100 to 1000 nM |
| COc1cc(-c2cnc3[nH]cc(-c4ccc5c(ccn5C)c4)c3c2)cc(OC)c1OC | < 100 nM |
| COc1cc(-c2cnc3c(c2)C(Cc2ccccc2)C(=O)N3)cc(OC)c1OC (stereo not drawn) | > 1000 nM |

* * *

# SYSTEM TESTED: MLK3 (Homo sapiens (Human))
# PROTOCOL NOTES: Radiometric filter plate MLK3 assay
# Type: biochemical
# CONDITIONS USED: 2 μM cold ATP (Km), 1 μM inactive MKK7b, twenty minute incubation; read-out: MK3 IC50

| COMPOUND | SYSTEM TESTED | IC50 |
| --- | --- | --- |
| O=c1[nH]c2ncc(-c3cc(Cl)cc(Cl)c3)nc2n1-c1ccc2[nH]ccc2c1 | MLK3 (Homo sapiens (Human)) | > 1000 nM |
| COc1cc(-c2nc3c(nc2Cl)[nH]c(=O)n3CC2CC2)cc(OC)c1OC | MLK3 (Homo sapiens (Human)) | > 1000 nM |
| CN1CCN(Cc2cccc(-c3cnc4[nH]cc(-c5ccc(C(N)=O)cc5)c4c3)c2)CC1 | MLK3 (Homo sapiens (Human)) | < 100 nM |
| CN1CCN(Cc2ccc(-c3cnc4[nH]cc(-c5ccc6ncccc6c5)c4c3)cc2)CC1 | MLK3 (Homo sapiens (Human)) | < 100 nM |
| CC(C)(C)CC(=O)N1CCN(Cc2ccc(-c3cnc4[nH]cc(-c5ccc6[nH]ccc6c5)c4c3)cc2)CC1 | MLK3 (Homo sapiens (Human)) | < 100 nM |
| O=c1[nH]c2ncc(-c3ccc(N4CCOCC4)cc3)nc2n1-c1ccc2[nH]ncc2c1 | MLK3 (Homo sapiens (Human)) | > 1000 nM |
| COc1cc(-c2cnc3[nH]cc(-c4ccc5[nH]ccc5c4)c3n2)ccc1N | MLK3 (Homo sapiens (Human)) | < 100 nM |
| Cc1cc(C)cc(-c2cnc3[nH]c(=O)n(-c4ccc5[nH]ccc5c4)c3n2)c1 | MLK3 (Homo sapiens (Human)) | > 1000 nM |
| CN1CCN(Cc2ccc(-c3cnc4[nH]cc(-c5ccc(F)cc5)c4c3)cc2)CC1 | MLK3 (Homo sapiens (Human)) | > 1000 nM |
| CN1CCN(c2cc(-c3cnc4[nH]cc(-c5ccc6[nH]ccc6c5)c4c3)ccn2)CC1 | MLK3 (Homo sapiens (Human)) | < 100 nM |
| CCOC(=O)N1CCN(Cc2ccc(-c3cnc4[nH]cc(-c5ccc6[nH]ccc6c5)c4c3)cc2)CC1 | MLK3 (Homo sapiens (Human)) | < 100 nM |
| COc1ccc(-n2c(=O)[nH]c3ncc(-c4ccncc4)nc32)cc1 | MLK3 (Homo sapiens (Human)) | > 1000 nM |
| COc1cc(-c2cnc3ncn(-c4ccc5[nH]ccc5c4)c3n2)cc(OC)c1OC | MLK3 (Homo sapiens (Human)) | > 1000 nM |
| COCCC(=O)N1CCN(Cc2ccc(-c3cnc4[nH]cc(-c5ccc6[nH]ccc6c5)c4c3)cc2)CC1 | MLK3 (Homo sapiens (Human)) | < 100 nM |
| COc1cc(-c2cnc3[nH]c(=O)n(-c4ccc5[nH]cnc5c4)c3n2)cc(OC)c1OC | MLK3 (Homo sapiens (Human)) | < 100 nM |
| COc1ccc(-c2cnc3[nH]c(=O)n(-c4ccc5[nH]ccc5c4)c3n2)cc1F | MLK3 (Homo sapiens (Human)) | > 1000 nM |
| Cc1cc(C)cc(-c2cnc3[nH]c(=O)n(-c4ccc5scnc5c4)c3n2)c1 | MLK3 (Homo sapiens (Human)) | > 1000 nM |
| CN1CCN(Cc2ccc(-c3cnc4[nH]cc(-c5ccc(C(N)=O)cc5)c4c3)cc2)CC1=O | MLK3 (Homo sapiens (Human)) | < 100 nM |
| O=C1CCC(C(=O)N2CCN(Cc3ccc(-c4cnc5[nH]cc(-c6ccc7[nH]ccc7c6)c5c4)cc3)CC2)N1 (centres unmarked) | MLK3 (Homo sapiens (Human)) | < 100 nM |
| Cc1cc2cc(-n3c(=O)[nH]c4ncc(-c5cc(Cl)cc(Cl)c5)nc43)ccc2[nH]1 | MLK3 (Homo sapiens (Human)) | > 1000 nM |

* * *

# SYSTEM TESTED: MLK3 (Homo sapiens (Human))
# PROTOCOL NOTES: Radiometric filter plate MLK3 assay
# Format: biochemical
# CONDITIONS USED: 2 μM cold ATP (Km), 1 μM inactive MKK7b, twenty minute incubation; read-out: MK3 IC50
pIC50: −log10 of the molar value.
QUANTITY: pIC50

| MOLECULE | SYSTEM TESTED | OBSERVED RESULT |
| --- | --- | --- |
| COc1cc(-c2cnc3[nH]cc(-c4ccc5[nH]ccc5c4)c3c2)ccc1N [Example 5] | MLK3 (Homo sapiens (Human)) | > 7.00 |
| COc1cc(-c2cnc3c(c2)C(Cc2cccnc2)C(=O)N3)cc(OC)c1OC (stereo not shown) [Example 135] | MLK3 (Homo sapiens (Human)) | < 6.00 |
| Nc1ncc(-c2cnc3[nH]cc(-c4cnc(N)nc4)c3c2)cn1 [Example 20] | MLK3 (Homo sapiens (Human)) | < 6.00 |
| CC1CN(Cc2ccc(-c3cnc4[nH]cc(-c5ccc6[nH]ccc6c5)c4c3)cc2)CCN1C (stereo not shown) [Example 189] | MLK3 (Homo sapiens (Human)) | > 7.00 |

* * *

# SYSTEM TESTED: MLK3 (Homo sapiens (Human))
# PROTOCOL NOTES: Radiometric filter plate MLK3 assay
# Type: biochemical
# CONDITIONS USED: 2 μM cold ATP (Km), 1 μM inactive MKK7b, twenty minute incubation; read-out: MK3 IC50
# Description: After a twenty minute incubation, the reactions were washed through filter plates and read on a scintillation counter. Results are shown in Table 9 below, in which +++ indicates ≤0.1 μM, ++ indicates >0.1 μM and ≤1 μM, and + indicates >1 μM.
Structures can show the parent of a compound that is named as a salt.
QUANTITY: IC50

| MOLECULE | OBSERVED RESULT |
| --- | --- |
| O=c1[nH]c2ncc(-c3ccc4cc[nH]c4c3)nc2n1-c1ccc2[nH]ccc2c1 [Example 56] | > 1000 nM |
| Nc1ccc(-c2cnc3[nH]cc(-c4ccc(F)c(Cl)c4)c3c2)cn1 [Example 29] | > 1000 nM |
| COc1cc(-c2cnc3c(c2)C(Cc2ccncc2)C(=O)N3)cc(OC)c1OC (centres unmarked) [Example 136] | > 1000 nM |
| CC(=O)Nc1ccc(-c2cnc3[nH]cc(-c4ccc5[nH]ccc5c4)c3c2)cc1 [Example 3] | < 100 nM |
| COc1cc(-c2cnc3[nH]c(=O)n(-c4ccc5[nH]ccc5c4)c3n2)ccc1N [Example 60] | < 100 nM |
| COc1cc(-c2cnc3[nH]cc(-c4ccc(N)nc4)c3c2)cc(OC)c1OC [Example 18] | < 100 nM |
| CC(C)CC(=O)N1CCN(Cc2ccc(-c3cnc4[nH]cc(-c5ccc6[nH]ccc6c5)c4c3)cc2)CC1 [Example 204] | < 100 nM |
| NC(=O)c1ccc(-c2c[nH]c3ncc(-c4ccc(C(=O)N5CCNCC5)cc4)cc23)cc1 [Example 149, hydrochloride salt] | < 100 nM |

* * *

# PROTOCOL NOTES: Standard murine pharmacokinetic model (plasma and brain AUC)
# Format: in vivo
# CONDITIONS USED: CL57 BL/6 mice, single IV injection 10 mg/kg, brain homogenate
QUANTITY: AUC Brain

| MOLECULE | OBSERVED RESULT |
| --- | --- |
| Nc1ccc(-c2cnc3[nH]cc(-c4ccc5[nH]ccc5c4)c3c2)cn1 [Example 4] | − (− indicates <500) |
| Nc1ncc(-c2cnc3[nH]cc(-c4ccc5[nH]ccc5c4)c3c2)cn1 [Example 9] | + (+ indicates ≥500) |
| COc1cc(-c2cnc3[nH]cc(-c4ccc(N)nc4)c3c2)cc(OC)c1OC [Example 18] | − (− indicates <500) |
| COc1cc(-c2cnc3[nH]cc(-c4cnc(N)nc4)c3c2)cc(OC)c1OC [Example 17] | − (− indicates <500) |
| CN1CCN(Cc2ccc(-c3cnc4[nH]cc(-c5ccc6[nH]ccc6c5)c4c3)cc2)CC1 [Example 32] | + (+ indicates ≥500) |
| COc1cc(-c2cnc3[nH]cc(-c4ccc5[nH]ccc5c4)c3c2)cc(OC)c1OC [Example 1] | + (+ indicates ≥500) |
